# Test system: E. coli TESEC Mtb Alr
# procedure_summary: growth (OD600 after 10 h); higher = more growth (less inhibition)
# particulars: arabinose 100 nM; compound 0.1 mM; raw OD600 reference: median of DMSO wells 0.413, cell-free background 0.052
Structures can show the parent of a compound that is named as a salt.
So I've got a bunch of molecules here, and I need their growth values.
Give the figure only, with no unit attached.

input: Identify growth associated with the molecule OC(CCCN1CCCCC1)(c1ccccc1)c1ccccc1 [Diphenidol hydrochloride]
output: 0.407

input: For the molecule NC(Cc1cc(I)c(Oc2cc(I)c(O)c(I)c2)c(I)c1)C(=O)O (stereo not drawn) , give its measured growth value.
output: 0.369

input: Retrieve growth measured for CN1CCN2c3ccccc3Cc3ccccc3C2C1 (stereo not drawn) [Mianserine hydrochloride] and print it.
output: 0.424

input: Please supply the value of reported growth for the item CCn1nc(C(=O)O)c(=O)c2cc3c(cc21)OCO3
output: 0.0933

input: Item NCCc1c[nH]cn1 [Histamine dihydrochloride] : provide growth
output: 0.42

input: Complete the entry with growth for Cc1onc(-c2ccccc2)c1C(=O)N[C@@H]1C(=O)N2[C@@H]1SC(C)(C)[C@@H]2C(=O)O [Oxacillin sodium]
output: 0.421

input: State its growth for this molecule: CN[C@@H]1[C@@H](O[C@H]2O[C@H](CO)[C@@H](N)[C@H](O)[C@H]2O)OC2C[C@@H](N)[C@@H](O[C@H]3[C@H](O)[C@@H](O)[C@H](N)C[C@@H]3N)OC2[C@@H]1O (stereo partly drawn)
output: 0.0841

input: For the molecule NS(=O)(=O)c1cc2c(cc1C(F)(F)F)NC(Cc1ccccc1)NS2(=O)=O (stereo not drawn) [Bendroflumethiazide] , report growth.
output: 0.403

input: Let me know recorded growth for O=C(O)/C=C/c1ccc(Cn2ccnc2)cc1 [Ozagrel hydrochloride] , thanks.
output: 0.397

input: Please give measured growth of the following entry: Cc1cc(=O)oc2cc(O)ccc12
output: 0.406

input: # return recorded growth for entry CN(C)C/C=C(/c1ccc(Br)cc1)c1cccnc1 [Zimelidine dihydrochloride monohydrate]
output: 0.397

input: Quickly give me recorded growth for CC(=O)[C@H]1CC[C@H]2[C@@H]3C=CC4=CC(=O)CC[C@@]4(C)[C@@H]3CC[C@]12C
output: 0.371

input: Retrieve growth measured for CC(C)NCC(O)COc1ccc(COCCOC(C)C)cc1 (stereo not drawn) [Bisoprolol fumarate] and print it.
output: 0.409

input: Please give the documented growth of CC(C(=O)O)c1ccc(C(=O)c2ccccc2)s1 (stereo not drawn)
output: 0.382

input: Tell me measured growth for O=C(c1ccc(OCCN2CCCCC2)cc1)c1c(-c2ccc(O)cc2)sc2cc(O)ccc12 [Raloxifene hydrochloride] please.
output: 0.41

input: Provide only the value of recorded growth for O=C(O)Cc1sc(-c2ccccc2)nc1-c1ccc(Cl)cc1
output: 0.141

input: Supply growth value. Item: C[C@H]1O[C@H](O[C@H]2[C@H](O)[C@@H](O)[C@@H](O[C@@H]([C@H](O)[C@@H](O)C=O)[C@H](O)CO)O[C@@H]2CO)[C@H](O)[C@@H](O)[C@@H]1N[C@H]1C=C(CO)[C@@H](O)[C@H](O)[C@H]1O
output: 0.396

input: Answer with the recorded growth of CC(=C(CCO)SSCC1CCCO1)N(C=O)Cc1cnc(C)nc1N (stereo in doubt) [Fursultiamine Hydrochloride] only.
output: 0.399

input: Give growth for O=C1C(CC[S+]([O-])c2ccccc2)C(=O)N(c2ccccc2)N1c1ccccc1 (stereo not drawn)
output: 0.38

input: Complete the entry with growth for Cc1ncc([N+](=O)[O-])n1CC(C)O (stereo not drawn)
output: 0.405

input: Give me measured growth, please, for this molecule: CC1=C(C(=O)O)N2C(=O)[C@@H](NC(=O)[C@H](N)c3ccc(O)cc3)[C@H]2SC1
output: 0.427

input: Report measured growth; entry is CC(C)(C)NCC(O)COc1cccc2c1CC(O)C(O)C2 (stereo not drawn)
output: 0.408

input: For the molecule CC(C)NCC(O)COc1cccc2[nH]ccc12 (stereo not drawn) , report growth.
output: 0.413

input: Note growth for the molecule shown: Cc1cc(NC(=O)C2=C(O)c3ccccc3S(=O)(=O)N2C)no1
output: 0.412

input: Please report growth for the following molecule: CCN1CCC[C@H]1CNC(=O)c1c(O)c(Cl)cc(Cl)c1OC [Raclopride]
output: 0.395

input: Name the recorded growth of the molecule listed here: O=C(NCCNCC(O)COc1ccc(O)cc1)N1CCOCC1 (stereo not drawn) [Xamoterol hemifumarate]
output: 0.405

input: Give the measured growth for CO/N=C(\C(=O)N[C@@H]1C(=O)N2C(C(=O)OC(C)OC(C)=O)=C(COC(N)=O)CS[C@H]12)c1ccco1 (stereo partly drawn)
output: 0.059

input: Identify measured growth corresponding to COC(=O)N/N=C/c1c[n+]([O-])c2ccccc2[n+]1[O-]
output: 0.157

input: Report measured growth; entry is Cc1ccnc2c1NC(=O)c1cccnc1N2C1CC1
output: 0.402

input: Provide measured growth value, entry: c1ccc2c(CC3=NCCN3)cccc2c1 [Naphazoline hydrochloride]
output: 0.41

input: For the molecule Clc1ccc2c(c1)C(N1CCNCC1)=Nc1ccccc1O2 , give its measured growth value.
output: 0.396

input: Give the reported value of growth for this record: CC(=O)N[C@@H](CS)C(=O)O
output: 0.412

input: Give me measured growth, please, for this molecule: CO[C@@]1(NC(=O)C2SC(=C(C(N)=O)C(=O)O)S2)C(=O)N2C(C(=O)O)=C(CSc3nnnn3C)CS[C@@H]21 (stereo partly drawn)
output: 0.0461
